assay procedure: chemical genetic growth profiling, strain panel (AID 1159580);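 further: tested at 20 µM; growth read once vehicle control cultures reached saturation at 30 °C; 1 = growth at the plate median or of vehicle wells; lower values mean less growth of the strain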
condition info: S. cerevisiae deletion strains, growth OD, locus YJL129C, strain trk1, hits give low values
The whole screen tested about 5,500 compounds, of which about 2,000 (36%) were called active. Another 18% or so got no clear call; they are omitted. This is one part of the list. Where a SMILES comes first, the peptide text is derived from it. Bridges are numbered along the chain shown (N, C = ends). [ ]: non-standard residue; d: D form. The star is where a group is joined. Octanoyl(6-Me) = CCC(C)CCCCC(=O)*; Dab = NCC[CH](N)C(=O)O
reported metric: normalized growth
Give bare numbers.

See these solved cases before continuing.
compound	val
C[C@]12CCC(=O)C=C1CCC1C2[C@@H](O)C[C@@]2(C)C1CC[C@]2(O)C(=O)COC(=O)CCC(=O)O (stereo partly drawn)	1.03
CCOc1ccc(C(=O)c2ccc(O)c(O)c2O)cc1	0.944
CC(=O)OCC(=O)[C@@]1(O)CCC2C3CCC4=CC(=O)CC[C@]4(C)C3[C@@H](O)C[C@@]21C (stereo partly drawn)	1.04
CC(=O)OCC1=C(C(=O)O)N2C(=O)[C@@H](NC(=O)CCCC(N)C(=O)O)C2SC1 (stereo partly drawn)	1
NC(=O)N1c2ccccc2C=Cc2ccccc21	1.04
C#C[C@]1(O)CCC2C3CCC4=Cc5oncc5C[C@]4(C)C3CC[C@@]21C (stereo partly drawn)	0.83
CCOc1ccc(NC(C)=O)cc1	1.02
CCOc1ccc(C(=O)c2cc(O)c(OC)c(OC)c2O)cc1	0.955

Please supply normalized growth for each of the following items, keeping them in order.
1. COC1(C)CCC2OC2(C)CCC2C1CC2(C)C (stereo not drawn)
2. CN(C)C(=N)N=C(N)N
3. COc1ccc(C(=O)c2ccccc2)c(O)c1O

Result:
[1.01, 1, 0.966]

Please supply normalized growth for each of the following items, keeping them in order.
1. COc1ccc(C(=O)c2ccc(O)cc2)c(O)c1O
2. CCC(C)CCCCC(=O)NC(CCN)C(=O)NC(C(=O)NC(CCN)C(=O)NC1CCNC(=O)C(C(C)O)NC(=O)C(CCN)NC(=O)C(CCN)NC(=O)C(CC(C)C)NC(=O)C(Cc2ccccc2)NC(=O)C(CCN)NC1=O)C(C)O (stereo not drawn) ({Octanoyl(6-Me)}-[Dab]T[Dab][Dab][Dab]FL[Dab][Dab]T; lactam 4-C; configuration not given here)

Result:
1: 0.935; 2: 1.09

----------
Please go through the items and note down their normalized growth.
assay procedure: chemical genetic growth profiling, strain panel (AID 1159580);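 further: tested at 20 µM; growth read once vehicle control cultures reached saturation at 30 °C; 1 = growth at the plate median or of vehicle wells; lower values mean less growth of the strain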
condition info: S. cerevisiae deletion strains, growth OD, locus YMR307W, strain GAS1, hits give low values
Hit rate of the full screen: of about 5,500 compounds, about 2,000 (36%) were called active. Not shown: some 18% with an inconclusive outcome. Some of the results follow. Where a SMILES comes first, the peptide text is derived from it. Side-chain parts run from the residue outwards. [ ]: non-standard residue; d: D form. The star is where a group is joined. X1 = CCC(C)C(N)C1=NC(C(=O)*)CS1; Orn = NCCC[CH](N)C(=O)O
Numbers only.

See these solved cases before continuing.
compound	reported metric	val
O=C1CCCN1c1ccc(Cl)c(Cl)c1	normalized growth	0.9
CCCCCCC(C)(C)c1ccc([C@@H]2C[C@H](O)CC[C@H]2CCCO)c(O)c1	normalized growth	1.01
CC1(C)S[C@@H]2[C@H](NC(=O)Cc3ccccc3)C(=O)N2[C@H]1C(=O)O	normalized growth	1.01
COc1cccc(C(=O)NCCN2CCN(c3ccc(Cl)cc3)CC2)c1	normalized growth	1.01
COc1cc(/C=C2/SC(=S)NC2=O)cc(OC)c1OC	normalized growth	0.887
COc1cccc(O)c1O	normalized growth	1.09

Please supply normalized growth for each of the following items, keeping them in order.
1. CC(=O)OCC(=O)[C@@]1(O)CCC2C3CCC4=CC(=O)CC[C@]4(C)C3[C@@H](O)C[C@@]21C (stereo partly specified)
2. C=CCn1c(COc2c(Br)cc(C)c3c2CCC3)n[nH]c1=S
3. NC[C@H]1O[C@H](O[C@H]2C(O[C@@H]3O[C@H](CO)[C@@H](O)[C@H]3O)[C@@H](O)[C@H](N)C[C@@H]2N)[C@H](N)[C@@H](O)[C@@H]1O (stereo partly specified)
4. CNS(=O)(=O)c1cc(Br)ccc1S(=O)c1ccccc1C(=O)O (stereo unspecified)

Result:
0.984
0.324
0.997
0.942

Please supply normalized growth for each of the following items, keeping them in order.
1. CC1=CC(=O)C2=C(C)CC(O)C3C(C)C(=O)OC3C12 (stereo unspecified)
2. COc1cccc(NC(=O)NC2Cc3ccccc3C2)c1

Result:
1. 1.02
2. 0.999

Please supply normalized growth for each of the following items, keeping them in order.
1. C[C@]12Cc3cn4c(nc3C=C1CCC1C2CC[C@@]2(C)[C@H]1CC[C@@]2(O)C#N)nc1ccccc14 (stereo partly specified)
2. COc1ccc2c(c1OC)OC[C@@H](c1ccc(OC)c(OC)c1OC)C2
3. CC(=O)C1C(=O)CC(c2ccc(Cl)cc2)CC1=O (stereo unspecified)
4. Cc1ccc(OCc2nnc(SCC(=O)c3ccc(F)cc3)n2-c2ccccc2)c2c1CCC2
5. CCC(C)C(N)C1=NC(C(=O)NC(CC(C)C)C(=O)NC(CCC(=O)O)C(=O)NC(C(=O)NCCCCC2NC(=O)C(CC(N)=O)NC(=O)C(CC(=O)O)NC(=O)C(Cc3cnc[nH]3)NC(=O)C(Cc3ccccc3)NC(=O)C(C(C)CC)NC(=O)C(CCCN)NC2=O)C(C)CC)CS1 (stereo not drawn) (cyclo(DNK([Ile-Glu-Leu-X1])[Orn]IFH); configuration not given here)
6. COc1cc2c(cc1O)CCNC2C (stereo unspecified)
7. O=C(CCBr)N1CCN(C(=O)CCBr)CC1
8. CC1=NN(c2ccccc2)C(=O)C1

Result:
[0.936, 0.927, 0.218, 1.01, 0.955, 1.08, 0.993, 0.7]

From: PubChem BioAssay AID1159580
